assay: Equilibrium solubility in EPO-solutions, 96-well SORESOS assay; assay type: physicochemical; settings: EPO 1.0%; vs measured solubility in water
quantity name: Non-adjusted SE in EPO 1.0% (in brackets)

> print(dat)
                                   compound  endpoint.value
1  CC(C)(C)c1ccc(C(O)CCCN2CCC(C(O)(c3ccccc3)c3ccccc3)CC2)cc1 (stereo not shown) [TFD, terfenadine]            54.0

1: O=c1[nH]c2ccccc2n1C1CCN(CCCC(c2ccc(F)cc2)c2ccc(F)cc2)CC1 [PMZ, Pimozide]
2: OC(c1cc(C(F)(F)F)nc2c(C(F)(F)F)cccc12)C1CCCCN1 (stereo not shown) [MFQ, mefloquine]
[Q] Between 1 and 2 , which one shows the larger Non-adjusted SE in EPO 1.0% (in brackets) value? Indicate which entry you chose by stating its label.
[A] 2

###

experiment: Equilibrium solubility in EPO-solutions, 96-well SORESOS assay; type: physicochemical; details: aqueous EPO polymer solution, pH 6, aqueous with cosolvent or surfactant or cyclodextrin, thermodynamic from solid; EPO 5%, 48 h, room temperature
quantity name: solubility at 48 h (mg/mL)
Note: unit mg/mL is implicit; provide only the numeric part.

[Q] Give the measured solubility at 48 h of OC(c1cc(C(F)(F)F)nc2c(C(F)(F)F)cccc12)C1CCCCN1 (stereo not shown) [MFQ, mefloquine] .
[A] 12

###

assay: Equilibrium solubility in EPO-solutions, 96-well SORESOS assay; format: physicochemical; settings: EPO 3.0%; vs measured solubility in water
quantity name: Non-adjusted SE in EPO 3.0% (in brackets)

Previously resolved entries follow.
> print(dat)
                                   molecule  endpoint.value
1  CC(C)(C)c1ccc(C(O)CCCN2CCC(C(O)(c3ccccc3)c3ccccc3)CC2)cc1 (centres unmarked) [TFD, terfenadine]            99.3
2  COc1ccccc1OCCNCC(O)COc1cccc2[nH]c3ccccc3c12 (centres unmarked) [CVD, carvedilol]           157.4

A: OC(c1cc(C(F)(F)F)nc2c(C(F)(F)F)cccc12)C1CCCCN1 (centres unmarked) [MFQ, mefloquine]
B: O=c1[nH]c2ccccc2n1C1CCN(CCCC(c2ccc(F)cc2)c2ccc(F)cc2)CC1 [PMZ, Pimozide]
[Q] Between A and B , which one shows the larger Non-adjusted SE in EPO 3.0% (in brackets) value? Indicate which entry you chose by stating its label.
[A] A

###

assay: Equilibrium solubility in EPO-solutions, 96-well SORESOS assay; type: physicochemical; details: EPO 5.0%; vs measured solubility in water
quantity name: Non-adjusted SE in EPO 5.0% (in brackets)

1: COc1ccccc1OCCNCC(O)COc1cccc2[nH]c3ccccc3c12 (centres unmarked)
2: CC(C)(C)c1ccc(C(O)CCCN2CCC(C(O)(c3ccccc3)c3ccccc3)CC2)cc1 (centres unmarked)
3: O=c1[nH]c2ccccc2n1C1CCN(CCCC(c2ccc(F)cc2)c2ccc(F)cc2)CC1 [PMZ, Pimozide]
[Q] Going from lowest to highest recorded Non-adjusted SE in EPO 5.0% (in brackets), rank the entries listed above. Hello, could you send the labels back in the order asked? Thank you.
[A] 3, 2, 1
(3: 63.8, 2: 91.2, 1: 165.9)

###

experiment: pKa via photometric titration (Roche internal data); type: physicochemical; conditions: measured via photometric titration; basic model compounds
quantity name: pKa

> print(dat)
                                   compound  quantity.name  endpoint.value
1  OC(c1cc(C(F)(F)F)nc2c(C(F)(F)F)cccc12)C1CCCCN1 (stereo not drawn) [MFQ, mefloquine]            pKa             9.2
2  CC(C)(C)c1ccc(C(O)CCCN2CCC(C(O)(c3ccccc3)c3ccccc3)CC2)cc1 (stereo not drawn) [TFD, terfenadine]            pKa             9.1
3  O=c1[nH]c2ccccc2n1C1CCN(CCCC(c2ccc(F)cc2)c2ccc(F)cc2)CC1 [PMZ, Pimozide]            pKa             8.6
4  COc1ccccc1OCCNCC(O)COc1cccc2[nH]c3ccccc3c12 (stereo not drawn) [CVD, carvedilol]            pKa             8.1
5  CC/C(=C(\c1ccccc1)c1ccc(OCCN(C)C)cc1)c1ccccc1 [TMX, tamoxifen]            pKa             9.7
6  C(=C\c1ccccc1)/CN1CCN(C(c2ccccc2)c2ccccc2)CC1 [CNZ, Cinnarizine]            pKa             7.8

###

test: Equilibrium solubility in EPO-solutions, 96-well SORESOS assay; format: physicochemical; conditions: EPO 1.0%; vs adjusted solubility in water at pH 6.0
quantity name: Adjusted SE in EPO 1.0%

> print(dat)
                                   molecule  endpoint.value
1  COc1ccccc1OCCNCC(O)COc1cccc2[nH]c3ccccc3c12 (centres unmarked) [CVD, carvedilol]             6.9

I: O=c1[nH]c2ccccc2n1C1CCN(CCCC(c2ccc(F)cc2)c2ccc(F)cc2)CC1 [PMZ, Pimozide]
II: CC(C)(C)c1ccc(C(O)CCCN2CCC(C(O)(c3ccccc3)c3ccccc3)CC2)cc1 (centres unmarked) [TFD, terfenadine]
III: OC(c1cc(C(F)(F)F)nc2c(C(F)(F)F)cccc12)C1CCCCN1 (centres unmarked) [MFQ, mefloquine]
[Q] Hey, quick one: sort these by Adjusted SE in EPO 1.0%, largest value first please. Hello, could you send the labels back in the order asked? Thank you.
[A] II, I, III

###

experiment: Drug solubility in water (aqueous solubility); format: physicochemical; conditions: thermodynamic from solid, extrapolated to pH 6.0 by Henderson-Hasselbalch equation, read-out: Adjusted solubility at pH 6.0
quantity name: solubility at 24 h (µg/mL)

> print(dat)
                                   compound  endpoint.value
1  CC(C)(C)c1ccc(C(O)CCCN2CCC(C(O)(c3ccccc3)c3ccccc3)CC2)cc1 (centres unmarked)              13

a: O=c1[nH]c2ccccc2n1C1CCN(CCCC(c2ccc(F)cc2)c2ccc(F)cc2)CC1 [PMZ, Pimozide]
b: COc1ccccc1OCCNCC(O)COc1cccc2[nH]c3ccccc3c12 (centres unmarked)
c: C(=C\c1ccccc1)/CN1CCN(C(c2ccccc2)c2ccccc2)CC1
d: OC(c1cc(C(F)(F)F)nc2c(C(F)(F)F)cccc12)C1CCCCN1 (centres unmarked)
[Q] Arrange the 4 compounds by rising solubility at 24 h, starting with the smallest. Hello, could you send the labels back in the order asked? Thank you.
[A] c, a, b, d

###

experiment: Equilibrium solubility in EPO-solutions, 96-well SORESOS assay; type: physicochemical; settings: EPO 2.0%; vs adjusted solubility in water at pH 6.0
quantity name: Adjusted SE in EPO 2.0%

> print(dat)
                                   compound            quantity.name  endpoint.value
1  CC(C)(C)c1ccc(C(O)CCCN2CCC(C(O)(c3ccccc3)c3ccccc3)CC2)cc1 (centres unmarked)  Adjusted SE in EPO 2.0%            11.7

a: COc1ccccc1OCCNCC(O)COc1cccc2[nH]c3ccccc3c12 (centres unmarked)
b: O=c1[nH]c2ccccc2n1C1CCN(CCCC(c2ccc(F)cc2)c2ccc(F)cc2)CC1 [PMZ, Pimozide]
c: OC(c1cc(C(F)(F)F)nc2c(C(F)(F)F)cccc12)C1CCCCN1 (centres unmarked)
[Q] Arrange the 3 compounds by rising Adjusted SE in EPO 2.0%, starting with the smallest. Hello, could you send the labels back in the order asked? Thank you.
[A] c, b, a

###

assay: Equilibrium solubility in EPO-solutions, 96-well SORESOS assay; assay type: physicochemical; settings: EPO 5.0%; vs adjusted solubility in water at pH 6.0
quantity name: Adjusted SE in EPO 5.0%

> print(dat)
                                   compound  endpoint.value
1  O=c1[nH]c2ccccc2n1C1CCN(CCCC(c2ccc(F)cc2)c2ccc(F)cc2)CC1 [PMZ, Pimozide]             9.8

1: OC(c1cc(C(F)(F)F)nc2c(C(F)(F)F)cccc12)C1CCCCN1 (centres unmarked) [MFQ, mefloquine]
2: CC(C)(C)c1ccc(C(O)CCCN2CCC(C(O)(c3ccccc3)c3ccccc3)CC2)cc1 (centres unmarked) [TFD, terfenadine]
[Q] Between 1 and 2 , which one shows the larger Adjusted SE in EPO 5.0% value? Indicate which entry you chose by stating its label.
[A] 2

###

test: Equilibrium solubility in EPO-solutions, 96-well SORESOS assay; type: physicochemical; conditions: EPO 4.0%; vs measured solubility in water
quantity name: Non-adjusted SE in EPO 4.0% (in brackets)

> print(dat)
                                   compound  endpoint.value
1  COc1ccccc1OCCNCC(O)COc1cccc2[nH]c3ccccc3c12 (centres unmarked) [CVD, carvedilol]           150.9

I: O=c1[nH]c2ccccc2n1C1CCN(CCCC(c2ccc(F)cc2)c2ccc(F)cc2)CC1 [PMZ, Pimozide]
II: CC(C)(C)c1ccc(C(O)CCCN2CCC(C(O)(c3ccccc3)c3ccccc3)CC2)cc1 (centres unmarked) [TFD, terfenadine]
III: OC(c1cc(C(F)(F)F)nc2c(C(F)(F)F)cccc12)C1CCCCN1 (centres unmarked) [MFQ, mefloquine]
[Q] Arrange the 3 compounds by rising Non-adjusted SE in EPO 4.0% (in brackets), starting with the smallest. Hello, could you send the labels back in the order asked? Thank you.
[A] I, II, III
